For each entry below, report its AC50 value.
MEASURED TARGET: p53 Y220C (Homo sapiens, UniProt P04637, Y220C)
MEASUREMENT NOTES: Luciferase Reporter Assay, p53 Y220C (NCIH1299 cells with inducible p53 Y220C and p53 response element-luciferase)
Format: cell-based
EXPERIMENTAL SETUP: 6 hour compound treatment, read-out: Luc P53 Y220C AC50

Query: Requested read-out AC50, target or system p53 Y220C (Homo sapiens, UniProt P04637, Y220C), entry CN1CC[C@@H](Nc2cccn3c(SC(F)(F)F)c(-c4noc(CNC(=O)C5CC5)n4)cc23)[C@@H](F)C1 [Example 3]
Response: < 750 nM

Query: Try this compound next: CN1CC[C@@H](Nc2cccn3c(SC(F)(F)F)c(-c4noc(CNC(=O)c5cnc(C(C)(C)C)o5)n4)cc23)[C@@H](F)C1 [Example 13]
Response: < 750 nM

Query: Try this compound next: CN1CC[C@@H](Nc2cccn3c(SC(F)(F)F)c(-c4noc(CNC(=O)C5(F)CCOCC5)n4)cc23)[C@@H](F)C1 [Example 36]
Response: 1500 to 3000 nM

Query: Try this compound next: CNC(=O)c1ccc(C(=O)NCc2nc(-c3cc4c(N[C@@H]5CCN(C)C[C@@H]5F)cccn4c3SC(F)(F)F)no2)cc1 [Example 57]
Response: < 750 nM

Query: Try this compound next: CN1CC[C@@H](Nc2cccn3c(SC(F)(F)F)c(-c4noc(CNC(=O)c5ccno5)n4)cc23)[C@@H](F)C1 [Example 76]
Response: < 750 nM

Query: Try this compound next: CN1CC[C@@H](Nc2cccn3c(SC(F)(F)F)c(-c4noc(CNC(=O)c5cnn(C(C)(C)C)c5)n4)cc23)[C@@H](F)C1 [Example 2]
Response: < 750 nM

###

For each entry below, report its pIC50 value.
System: NUGC3 cells (p53 Y220C)
MEASUREMENT NOTES: Cell Proliferation Assay (CellTiter-Glo), NUGC3 p53 Y220C
Format: cell-based
EXPERIMENTAL SETUP: Homo sapiens, NUGC-3, 120 h, 5 days, read-out: CTG NUGC3 P53 Y220C IC50
pIC50: −log10 of the molar value.

Query: What value of measured pIC50 is listed for "CN1CC[C@@H](Nc2cccn3c(SC(F)(F)F)c(-c4noc([C@H](CO)NC(=O)C5CC5)n4)cc23)[C@@H](F)C1" ?
Response: ≤ 5.52

Query: Try this compound next: "Cc1c(C(=O)NCc2nc(-c3cc4c(N[C@@H]5CCN(C)C[C@@H]5F)cccn4c3SC(F)(F)F)no2)sc2nc[nH]c(=O)c12"
Response: 5.82 to 6.12

Query: Try this compound next: "COc1ccc2n[nH]c(CC(=O)NCc3nc(-c4cc5c(N[C@@H]6CCN(C)C[C@@H]6F)cccn5c4SC(F)(F)F)no3)c2c1"
Response: 5.52 to 5.82

###

For each entry below, report its AC50 value.
MEASURED TARGET: p53 Y220C (Homo sapiens, UniProt P04637, Y220C)
MEASUREMENT NOTES: Luciferase Reporter Assay, p53 Y220C (NCIH1299 cells with inducible p53 Y220C and p53 response element-luciferase)
Assay type: cell-based
EXPERIMENTAL SETUP: 6 hour compound treatment, read-out: Luc P53 Y220C AC50

Query: What value of measured AC50 is listed for "CN1CC[C@@H](Nc2cccn3c(SC(F)(F)F)c(-c4noc(CNC(=O)[C@H]5C[C@@H](O)C5)n4)cc23)[C@@H](F)C1" ?
Response: 1500 to 3000 nM

Query: Try this compound next: "COc1ccc2nc(C(=O)NCc3nc(-c4cc5c(N[C@@H]6CCN(C)C[C@@H]6F)cccn5c4SC(F)(F)F)no3)ccc2c1"
Response: ≥ 3000 nM

Query: Try this compound next: "CN1CC[C@@H](Nc2cccn3c(SC(F)(F)F)c(-c4noc(CNC(=O)c5ccc6c(c5)C(C)(C)C(=O)N6)n4)cc23)[C@@H](F)C1"
Response: < 750 nM

Query: Try this compound next: "CN1CC[C@@H](Nc2cccn3c(SC(F)(F)F)c(-c4noc(CNC(=O)CC(C)(C)O)n4)cc23)[C@@H](F)C1"
Response: ≥ 3000 nM

Query: Try this compound next: CN1CC[C@@H](Nc2cccn3c(SC(F)(F)F)c(-c4noc(CNC(=O)C5CC(O)C5)n4)cc23)[C@@H](F)C1 (stereo partly drawn)
Response: 1500 to 3000 nM

Query: Try this compound next: "CNC(=O)c1coc(NCc2nc(-c3cc4c(N[C@@H]5CCN(C)C[C@@H]5F)cccn4c3SC(F)(F)F)no2)n1"
Response: < 750 nM

###

MEASURED TARGET: p53 Y220C (Homo sapiens, UniProt P04637, Y220C)
MEASUREMENT NOTES: Luciferase Reporter Assay, p53 Y220C (NCIH1299 cells with inducible p53 Y220C and p53 response element-luciferase)
Assay type: cell-based
EXPERIMENTAL SETUP: 6 hour compound treatment, read-out: Luc P53 Y220C AC50
QUANTITY MEASURED: AC50

Query: Requested read-out AC50, target or system p53 Y220C (Homo sapiens, UniProt P04637, Y220C), entry CN1CC[C@@H](Nc2cccn3c(SC(F)(F)F)c(-c4noc(CNC(=O)C#CC5(C)CC5)n4)cc23)[C@@H](F)C1 [Example 31]
Response: < 750 nM

Query: Try this compound next: CN1CC[C@@H](Nc2cccn3c(SC(F)(F)F)c(-c4noc(CNC(=O)c5cnn(C)n5)n4)cc23)[C@@H](F)C1 [Example 79]
Response: < 750 nM

Query: Try this compound next: CC(=O)NCc1nc(-c2cc3c(N[C@@H]4CCN(C)C[C@@H]4F)cccn3c2SC(F)(F)F)no1 [Example 59]
Response: 750 to 1500 nM

Query: Try this compound next: CN1CC[C@@H](Nc2cccn3c(SC(F)(F)F)c(-c4noc(CNC(=O)C5(C#N)CC5)n4)cc23)[C@@H](F)C1 [Example 28]
Response: < 750 nM

Query: Try this compound next: CN1CC[C@@H](Nc2cccn3c(SC(F)(F)F)c(-c4noc(CNC(=O)c5nnc(N(C)C)s5)n4)cc23)[C@@H](F)C1 [Example 82]
Response: < 750 nM

Query: Try this compound next: COc1csc(C(=O)NCc2nc(-c3cc4c(N[C@@H]5CCN(C)C[C@@H]5F)cccn4c3SC(F)(F)F)no2)c1 [Example 37]
Response: < 750 nM

Query: Try this compound next: C[C@H](O)CC(=O)NCc1nc(-c2cc3c(N[C@@H]4CCN(C)C[C@@H]4F)cccn3c2SC(F)(F)F)no1 [Example 64]
Response: ≥ 3000 nM

###

MEASURED TARGET: p53 Y220C (Homo sapiens, UniProt P04637, Y220C)
MEASUREMENT NOTES: Luciferase Reporter Assay, p53 Y220C (NCIH1299 cells with inducible p53 Y220C and p53 response element-luciferase)
Type: cell-based
EXPERIMENTAL SETUP: 6 hour compound treatment, read-out: Luc P53 Y220C AC50
For each entry below, report its AC50 value.

Query: What value of measured AC50 is listed for "CN1CC[C@@H](Nc2cccn3c(SC(F)(F)F)c(-c4noc(CNC(=O)c5cnc(N(C)C)o5)n4)cc23)[C@@H](F)C1" ?
Response: < 750 nM

Query: Try this compound next: "COC(C)(C)C(=O)NCc1nc(-c2cc3c(N[C@@H]4CCN(C)C[C@@H]4F)cccn3c2SC(F)(F)F)no1"
Response: ≥ 3000 nM

Query: Try this compound next: "COc1ccc2[nH]nc(C(=O)NCc3nc(-c4cc5c(N[C@@H]6CCN(C)C[C@@H]6F)cccn5c4SC(F)(F)F)no3)c2c1"
Response: 1500 to 3000 nM

Query: Try this compound next: "CN1CC[C@@H](Nc2cccn3c(SC(F)(F)F)c(-c4noc(CNC(=O)C5CC5)n4)nc23)[C@@H](F)C1"
Response: ≥ 3000 nM

Query: Try this compound next: "CN1CC[C@@H](Nc2cccn3c(SC(F)(F)F)c(-c4noc(CNC(=O)c5ccn(CC(C)(C)O)c5)n4)cc23)[C@@H](F)C1"
Response: < 750 nM

Query: Try this compound next: "C[C@@H](O)CC(=O)NCc1nc(-c2cc3c(N[C@@H]4CCN(C)C[C@@H]4F)cccn3c2SC(F)(F)F)no1"
Response: 1500 to 3000 nM

###

For each entry below, report its AC50 value.
MEASURED TARGET: p53 Y220C (Homo sapiens, UniProt P04637, Y220C)
MEASUREMENT NOTES: Luciferase Reporter Assay, p53 Y220C (NCIH1299 cells with inducible p53 Y220C and p53 response element-luciferase)
Assay type: cell-based
EXPERIMENTAL SETUP: 6 hour compound treatment, read-out: Luc P53 Y220C AC50

Query: What value of measured AC50 is listed for "CN1CC[C@@H](Nc2cccn3c(SC(F)(F)F)c(-c4noc(CNC(=O)c5sccc5N)n4)cc23)[C@@H](F)C1" ?
Response: < 0.75 µM

Query: Try this compound next: "CNC(=O)c1cccc(C(=O)NCc2nc(-c3cc4c(N[C@@H]5CCN(C)C[C@@H]5F)cccn4c3SC(F)(F)F)no2)c1"
Response: < 0.75 µM

Query: Try this compound next: "CN1CC[C@@H](Nc2cccn3c(SC(F)(F)F)c(-c4noc(CNC(=O)c5ccc(C#N)s5)n4)cc23)[C@@H](F)C1"
Response: 0.75 to 1.5 µM

Query: Try this compound next: "CN1CC[C@@H](Nc2cccn3c(SC(F)(F)F)c(-c4cc(CNC(=O)c5cnn(C(C)(C)C)c5)on4)cc23)[C@@H](F)C1"
Response: < 0.75 µM

Query: Try this compound next: "CN1CC[C@@H](Nc2cccn3c(SC(F)(F)F)c(-c4noc(CNC(=O)C#CC5(NC(=O)OC(C)(C)C)CC5)n4)cc23)[C@@H](F)C1"
Response: < 0.75 µM

Query: Try this compound next: "CN1CC[C@@H](Nc2cccn3c(SC(F)(F)F)c(-c4cnc(CNC(=O)C5CC5)o4)cc23)[C@@H](F)C1"
Response: ≥ 3 µM

All values here come from patent US20260347353A1.
